Kindly state ED50 writhing inhibition for each of the entries shown.
# Test system: phenylquinone-induced writhing reaction in mice
# measurementNotes: Phenylquinone-induced writhing test in mice
# Assay type: in vivo, Male NMRI mice
# conditions: orally, phenylquinone i.p. 30 minutes after oral administration, writhing counted 5-20 minutes after phenylquinone
# Description: The analgesic effectiveness of the compounds according to the invention was investigated in mice using the phenylquinone-induced writhing test as modified by I. C. Hendershot, J. Forsaith in J. Pharmacol. Exptl. Ther. 125, 237 (1959). […] The number of pain-induced stretching movements (writhing reaction=contortion of the body accompanied by stretching of the rear extremities) was counted using a push-button counter 5-20 minutes after administration of the phenylquinone. […]
Provide only the numeric value, understood in mg/kg.

Request: Respond only with ED50 writhing inhibition recorded for CCOc1cccc(C2(O)C(C)CCCC2CN(C)C)c1 (stereo not shown) [Example 11]
Response: 21.6

Request: Check the records and state ED50 writhing inhibition for CC1CCCC(CN(C)C)C1(O)c1cccc(O)c1 (racemic) [Example 8]
Response: 14.0

Request: Specify ED50 writhing inhibition for CCOc1cccc(C2(O)C(C)CCCC2CN(C)C)c1 (stereo not shown) [Example 12] and stop.
Response: 4.39

Request: Please list ED50 writhing inhibition recorded for the molecule CC1CCCC(CN(C)C)C1(O)c1cccc(O)c1 (stereo not shown) [Example 10]
Response: 5.3

Request: Fill in reported ED50 writhing inhibition for this entry: COc1cccc(C2(O)C(C)CCCC2CN(C)C)c1 (stereo not shown) [Example 6]
Response: 6.58

Request: Fill in reported ED50 writhing inhibition for this entry: CC1CCCC(CN(C)C)C1(O)c1cccc(O)c1 (racemic) [Example 3]
Response: 2.09

Request: Specify reported ED50 writhing inhibition for the molecule shown: CC1CCCC(CN(C)C)C1(O)c1cccc(O)c1 (stereo not shown) [Example 9]
Response: 19.8
